Target: HLA-A*11:01 (recombinant MHC class I molecule) (human)
Assay: REVEAL MHC-peptide binding assay, recombinant HLA-A*11:01

binder | In Vitro Score
FWVLRGRKK [Synthetic peptide FWVLRGRKK] | 5 score, % of positive control peptide
FWVKRGRKK [Synthetic peptide FWVKRGRKK] | 6.5 score, % of positive control peptide
